Entry source: PubChem BioAssay (NCI)

Answer each item with its documented TGI.
Tested on: PC-3 prostate
Assay: NCI tumour cell line growth inhibition, 48 h
Give bare numbers, in µM.

Please report the measured TGI for COc1ccccc1/C=C\C(=O)C1COCN1 (stereo not given) 29.1

Each compound below has a reported value. Please supply its TGI.
1. COC1=C2CC(C)CC(OC)C(OC(=O)CN)[C@H](C)/C=C(\C)C(OC(N)=O)C(OC)/C=C\C=C(/C)C(=O)NC(=CC1=O)C2=O (stereo not given in full)
2. COc1ccc(C2C(C#N)=C(N)Oc3c2sc2c(Br)cccc32)cc1 (stereo not given)

13.3
17.3

----------
Tested on: SK-MEL-5 melanoma
Experiment: NCI tumour cell line growth inhibition, 48 h
Answer each item with its documented TGI.
Numbers only, in µM.

Sample records with TGI:
Please report the measured TGI for Clc1ccc2c(c1)N(C1CCCN(Cc3ccccc3)C1)c1ccccc1S2 (stereo unspecified) 25.3

Please report the measured TGI for COc1ccccc1[As]=[As]c1ccccc1OC (stereo unspecified) 0.163

Please report the measured TGI for CCC1(CC)N=C(C(F)(F)F)c2cc(C(=O)C(F)(F)F)c3ccccc3c2N1 11.4

Here is another compound to look at.
Please report the measured TGI for C/C(=N\Nc1nc2ccccc2[nH]1)c1cnccn1 13.2

----------
Answer each item with its documented log10(TGI).
Test system: HCC-2998 colon
Experiment: NCI tumour cell line growth inhibition, 48 h
The base-10 logarithm of TGI, taken with TGI in µM, is what appears here.

Sample records with log10(TGI):
Please report the measured log10(TGI) for COc1cc2cc3c4c(cc(OC)c(OC)c4c2cc1OC)CCN3C 1.52

Please report the measured log10(TGI) for Cc1c2ccncc2c(C)c2c1sc1ccccc12 1.41

Please report the measured log10(TGI) for CN(C)CCCNC(=O)c1cc(NS(=O)(=O)c2ccc3c(c2)C(=O)c2ccccc2C3=O)cn1C 1.76

Please report the measured log10(TGI) for CCN1C(=O)N(CC)C2C1NN=c1s/c(=C3\C(=O)N(C4CCCC4)c4ccccc43)c(=O)n12 (stereo not drawn) 0.72

Please report the measured log10(TGI) for Nc1cccc(OCC2CCCN3CCCCC23)c1 (stereo not drawn) 1.48

Each compound below has a reported value. Please supply its log10(TGI).
1. CNC(=O)c1c(F)cccc1Nc1nc(Nc2cc3c(cc2OC)CCN3C(=O)CN(C)C)nc2[nH]ccc12
2. CCCCSCC(NC(=O)/C=C/c1c(C)[nH]c(=O)[nH]c1=O)C(=O)OC (stereo not drawn)
3. CC/C(Cl)=N\OC(=O)Nc1ccc(OC)c(C)c1
4. N#Cc1nc(C#N)c(Sc2ccccc2)c(Sc2ccccc2)c1Sc1ccccc1
5. COc1c(I)c(OC)c2c(c1I)O[C@@H]1OCC[C@H]21
6. CCCCCCCCCCNCCSS(=O)(=O)O

0.96
2.12
1.64
0.67
1.90
0.50

----------
Tested on: TK-10 renal
Experiment: NCI tumour cell line growth inhibition, 48 h; in the data active means GI50 below about 0.43 µM; inactive means the rest
Entry note: the call must match one of active, inactive

In this assay, the call recorded for COc1ccc(S(=O)(=O)Nc2c(/C=C\c3cc(OC)c(OC)c(OC)c3)ccc(OC)c2O)cc1 was what? active

In this assay, the call recorded for C=C1C(=O)O[C@H]2[C@H]1CC/C(COC(=O)/C=C\C(=O)NCc1ccc(Cn3c(=O)sn(CCI)c3=O)cc1)=C\CC[C@@]1(C)O[C@@H]21 was what? inactive

In this assay, the call recorded for COc1ccc(C(=O)c2cc3c(N)c(C(=O)Nc4cccc(Br)c4C)sc3nc2C)cc1 was what? inactive

In this assay, the call recorded for N=C(N)c1ccc(-c2ccc(-c3ccc4ccccc4c3)s2)s1 was what? inactive

In this assay, the call recorded for O=C(/C=C/c1ccccn1)c1ccc(OCc2nnc(-c3ccc(Cl)cc3)o2)cc1 was what? inactive

In this assay, the call recorded for COc1ccc2c(O)c(/C=C3\N=Nc4ncccc43)oc2c1C[C@@H]1CCNC[C@H]1F was what? inactive

In this assay, the call recorded for Cc1ccc(Cl)c(NS(=O)(=O)c2ccc(-c3cnc(C4CC4)o3)cc2)c1 was what? inactive

In this assay, the call recorded for COc1ccc2c(c1)/C(=C\c1c(-c3cc(OC)ccc3OC)nc3sccn13)C(=O)N2 was what? inactive

Okay, next one:
In this assay, the call recorded for COCCc1n(Cc2ccc3ccccc3c2)c2ccccc2[n+]1Cc1ccc2ccccc2c1 was what? inactive

----------
Test system: EKVX NSCLC
Test: NCI tumour cell line growth inhibition, 48 h; in the data active means GI50 below about 0.43 µM; inactive means the rest
Entry note: the call must match one of active, inactive

In this assay, the call recorded for OC1CCCC2CCC[N-]C12.OC1CCCC2CCC[N-]C12.[O]=[V][OH] (stereo not given) was what? inactive

In this assay, the call recorded for N=C(N)c1ccc(-c2ccc(-c3ccc4ccccc4c3)s2)s1 was what? inactive

In this assay, the call recorded for Cc1ccc(Cl)c(NS(=O)(=O)c2ccc(-c3cnc(C4CC4)o3)cc2)c1 was what? active

In this assay, the call recorded for Oc1[nH]c2ccccc2c1/C=c1/ccc2c(c1)N=C(c1ccc(C(F)(F)F)cc1)N=2 was what? inactive

In this assay, the call recorded for CCN(CC)c1ccc(-c2cc(-c3cc(OC)c(OC)c(OC)c3)nc(N3CCC(O)CC3)c2C#N)cc1 was what? inactive

In this assay, the call recorded for c1ccc(Oc2ccc(Nc3ncc(-c4ccccc4)o3)cc2)cc1 was what? inactive

***
In this assay, the call recorded for CCN(CC)CCN1c2nc3ccccc3cc2Sc2cc3ccccc3nc21 was what? inactive

In this assay, the call recorded for COc1ccc2c(O)c(/C=C3\N=Nc4ncccc43)oc2c1C[C@@H]1CCNC[C@H]1F was what? active

In this assay, the call recorded for COc1ccccc1[As]=[As]c1ccccc1OC (stereo not given) was what? active

In this assay, the call recorded for O=C(Nc1cc(F)c(F)cc1C(=O)O)c1ccc(-n2ccnc2)nn1 was what? inactive

----------
Answer each item with its documented TGI.
System: DU-145 prostate
Experiment: NCI tumour cell line growth inhibition, 48 h
Where a SMILES comes first, the peptide text is derived from it. The star is where a group is joined. Cbz = O=C(OCc1ccccc1)*; Bn = c1ccc(C*)cc1
Give bare numbers, in µM.

Sample records with TGI:
Please report the measured TGI for NCCCNc1nc2ccccc2c2c(=O)c3cccc(Cl)c3sc12 3.46

Please report the measured TGI for O=C(Nc1cc(Cl)ccc1O)c1cccc(Nc2ccnc(C(F)(F)F)c2)c1 22.6

Please report the measured TGI for COc1ccc2c(c1)CCc1cc(OC)ccc1/[N+]([O-])=[N+]\2[O-] 38.1

Please report the measured TGI for COC(=O)C(Cc1ccc(O)cc1)NC(=O)C(COCc1ccccc1)NC(=O)OCc1ccccc1 (centres undefined) (Cbz-Ser(Bn)-Tyr-OMe; configuration not given here) 31.8

Please report the measured TGI for O=C(CSCC(=O)N/N=C\c1ccc(O)c(O)c1O)N/N=C\c1ccc(O)c(O)c1O 29.1

Here is another compound to look at.
Please report the measured TGI for COc1ccc2c(O)c(/C=C3\N=Nc4ncccc43)oc2c1C[C@@H]1CCNC[C@H]1F 4.19

----------
Test system: SW-620 colon
Assay: NCI tumour cell line growth inhibition, 48 h
MEASUREMENT_LABEL: TGI

Please report the measured TGI for COC(=O)c1c(C)c2c(c(C)c1C(=O)OC)-c1c(C)ccc3ccc(C)c-2c13 > 94.5 µM

Please report the measured TGI for C/C=C/C(=O)[O-].C/C=C/C(=O)[O-].N.N.N.N.[Co+3].[O-][Cl+3]([O-])([O-])[O-] > 100 µM

Please report the measured TGI for CCN(CC)C(=S)SCC(=O)Nc1nc2c(s1)CCCC2 > 100 µM

Please report the measured TGI for CCOC(=O)/C(C(=S)NCc1ccccc1)=C(/N)N1CCCC1 > 100 µM

***
Please report the measured TGI for COc1c(C(C)(C)C)cc(CC2C(=O)C=CC2=O)cc1C(C)(C)C 28.2 µM

----------
Tested on: A498 renal
Experiment: NCI tumour cell line growth inhibition, 48 h
MEASUREMENT_LABEL: GI50

Each compound below has a reported value. Please supply its GI50.
1. Cc1nc2sc3c(N)ncnc3c2c(C)c1C
2. CCCCOc1ccc(/C=N/Nc2cc(C)nc3ccc(Br)cc23)cc1
3. CCC(=O)N1C/C(=C/c2ccc(Br)cc2)C(=O)/C(=C/c2ccc(Br)cc2)C1
4. O=C1NC2(CCCCC2)C(=O)N1CCN(CCCl)CCCl
5. Clc1ccc2c(c1)N(C1CCCN(Cc3ccccc3)C1)c1ccccc1S2 (stereo not given)
6. O=C1C=C(OCC=C(C(F)(F)F)C(F)(F)F)c2ccccc2C1=O
7. CN(C)Cc1ccc(NC(=O)c2cncc(C#Cc3cnc(N)c4ncccc34)c2)cc1F
8. NCCCNc1nc2ccccc2c2c(=O)c3cccc(Cl)c3sc12

1: > 25 µM; 2: 1.48 µM; 3: 1.43 µM; 4: > 25 µM; 5: 14.7 µM; 6: 4.36 µM; 7: 6 µM; 8: 1.02 µM

Each compound below has a reported value. Please supply its GI50.
1. CS(=O)(=O)c1cccc(Nc2ncc3cc(-c4ccccc4Cl)ccc3n2)c1
2. C/C=C/C(=O)[O-].C/C=C/C(=O)[O-].N.N.N.N.[Co+3].[O-][Cl+3]([O-])([O-])[O-]

1: 1.75 µM; 2: > 100 µM
